These entries and their values trace back to paper PMC7835958.

Molecular target: T1, HRP-2_(469–549) (human, UniProt Q7Z4V5 469-549, 15N-labeled)
T1 construct: also called HRP-2-IBD; HRP-2 IBD; source: E. coli Rosetta2 (DE3), purified
T1 sequence (looked up): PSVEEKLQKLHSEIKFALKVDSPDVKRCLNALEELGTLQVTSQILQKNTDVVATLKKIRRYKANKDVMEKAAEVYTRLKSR
Test: NMR titration; 20 µM 15N-labeled IBD (HRP-2 469–549 or LEDGF/p75 345–426) mixed with various concentrations of unlabeled synthetic MLL peptide (123–160); 15N/1H HSQC (SOFAST), 25 °C; KD from chemical shift perturbations
Conditions: both partners purified
readout label: Kd (µM)

1) GTNLRRFRAVFGESGGGGGSGEDEQFLGFGSDEEVRVR (peptide, UniProt Q03164 123-160, looked up, also called MLL-derived peptide; source: synthetic peptide) [synthetic MLL peptide (123–160)] : 54.4
